Target: ZtNMTΔ99 (Zymoseptoria tritici, UniProt F9XBB7)
Sequence (F9XBB7 entry or part of it, stated change not applied): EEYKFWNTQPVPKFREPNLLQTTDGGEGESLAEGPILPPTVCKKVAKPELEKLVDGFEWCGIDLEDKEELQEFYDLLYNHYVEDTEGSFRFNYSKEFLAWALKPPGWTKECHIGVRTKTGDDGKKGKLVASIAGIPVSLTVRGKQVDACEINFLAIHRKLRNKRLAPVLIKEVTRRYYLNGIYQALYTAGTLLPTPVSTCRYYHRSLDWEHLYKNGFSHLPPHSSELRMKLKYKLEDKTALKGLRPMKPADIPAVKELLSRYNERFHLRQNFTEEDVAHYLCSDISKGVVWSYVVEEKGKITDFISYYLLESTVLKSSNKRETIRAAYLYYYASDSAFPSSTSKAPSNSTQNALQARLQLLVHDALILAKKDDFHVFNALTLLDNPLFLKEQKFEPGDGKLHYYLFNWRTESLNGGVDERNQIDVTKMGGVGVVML
Assay: ZtNMT IC50 assay (CPM, enzymatic)
Format: biochemical
Conditions: Table S1; enzymatic CPM assay; read-out: IC50
As shown below, each of these compounds has a reported IC50 value.
// note: answer is a bare numeric in nM

Would you please look over these solved cases?
| chem-smiles | recorded-number |
| --- | --- |
| CNCc1nn(C)c2ccc(-c3ccc(F)c(F)c3OCCc3c(C)nn(C)c3C)cc12 | 6.7 |
| CNCc1nnc2ccc(-c3ccc(F)cc3OCCc3c(C(F)(F)F)nn(C)c3C)cn12 | 700 |
| CNCCc1cnc2ccc(-c3ccc(F)cc3OCCc3c(C(=O)N(C)C)nn(C)c3C)cn12 | 13 |

The record that follows has no IC50 shown yet.
-- ask # returns recorded IC50 (system: ZtNMTΔ99 (Zymoseptoria tritici, UniProt F9XBB7)) for CNCc1nn(C)c2ccc(-c3cccc(F)c3OCCc3c(C)nn(C)c3C)cc12
-- reply 30

Hey, just so you know, these numbers are from paper PMC8341946.
